Molecular target: Tyrosine-protein phosphatase non-receptor type 1 (Homo sapiens, UniProt P18031)
Sequence (P18031 whole entry): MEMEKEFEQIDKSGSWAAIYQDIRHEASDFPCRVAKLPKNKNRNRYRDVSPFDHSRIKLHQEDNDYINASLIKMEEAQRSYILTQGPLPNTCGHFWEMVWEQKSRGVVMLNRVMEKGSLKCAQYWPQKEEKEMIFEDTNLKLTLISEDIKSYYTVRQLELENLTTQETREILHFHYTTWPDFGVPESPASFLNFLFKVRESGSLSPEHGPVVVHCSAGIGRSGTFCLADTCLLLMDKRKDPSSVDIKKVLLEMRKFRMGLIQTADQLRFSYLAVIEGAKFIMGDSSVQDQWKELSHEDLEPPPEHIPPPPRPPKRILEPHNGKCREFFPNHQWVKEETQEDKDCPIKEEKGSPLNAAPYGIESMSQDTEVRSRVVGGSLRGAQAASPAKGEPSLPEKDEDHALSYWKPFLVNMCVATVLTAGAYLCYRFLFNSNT
measurement-label: IC50

{"record-smiles": "C[C@]12CCC(=O)C=C1CC[C@@H]1[C@@H]2CC[C@@]2(C)[C@H]1CC[C@]2(O)C#Cc1c(-c2ccccc2)oc2cc(O)c(C(=O)O)cc12", "recorded-measurement": "> 50 µM"}
{"record-smiles": "C#Cc1c(-c2ccccc2)oc2cc(O)c(C(=O)O)cc12", "recorded-measurement": "> 50 µM"}
{"record-smiles": "COc1cccc(C#Cc2c(-c3ccccc3)oc3cc(O)c(C(=O)O)cc23)c1", "recorded-measurement": "> 30 µM"}

====

Target: Tyrosine-protein phosphatase non-receptor type 2 (Homo sapiens, UniProt P17706)
Sequence (P17706 whole entry): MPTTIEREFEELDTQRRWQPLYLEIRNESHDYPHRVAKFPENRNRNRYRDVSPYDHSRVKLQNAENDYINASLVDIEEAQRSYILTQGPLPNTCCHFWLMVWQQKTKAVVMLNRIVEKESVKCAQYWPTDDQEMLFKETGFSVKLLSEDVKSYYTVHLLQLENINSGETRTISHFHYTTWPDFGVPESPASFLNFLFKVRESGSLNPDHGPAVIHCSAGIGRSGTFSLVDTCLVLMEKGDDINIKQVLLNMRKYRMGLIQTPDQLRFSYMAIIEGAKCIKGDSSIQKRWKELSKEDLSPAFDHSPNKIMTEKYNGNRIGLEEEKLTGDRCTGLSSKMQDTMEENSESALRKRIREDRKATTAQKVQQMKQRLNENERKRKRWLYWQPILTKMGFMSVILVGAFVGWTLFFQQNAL
Assay: Inhibition of TCPTP (unknown origin) expressed in Escherichia coli using pNPP substrate after 5 mins by spectrophotometric analysis
pIC50: −log10 of the molar value.
Overview of reported pIC50 across a group of molecules:

{"record-smiles": "COc1cccc(C#Cc2c(-c3ccccc3)oc3cc(O)c(C(=O)O)cc23)c1", "pIC50": "< 4.52"}
{"record-smiles": "C[C@]12CCC(=O)C=C1CC[C@@H]1[C@@H]2CC[C@@]2(C)[C@H]1CC[C@]2(O)C#Cc1c(-c2ccccc2)oc2cc(O)c(C(=O)O)cc12", "pIC50": "< 4.30"}
{"record-smiles": "O=C(O)c1cc2c(C#CCO)c(-c3ccccc3)oc2cc1O", "pIC50": "< 4.00"}
